# System: MALME-3M melanoma
# MEASUREMENT_PROTOCOL: NCI tumour cell line growth inhibition, 48 h
QUANTITY_KIND: TGI

Please fill in: TGI reported for CCO/N=C(/CC)c1ccc(Br)s1 = > 100 µM

Please fill in: TGI reported for CCCCCCCCCCCCCCCC(N)c1ccccc1 (configuration not stated) = 3.28 µM

Please fill in: TGI reported for CCc1ncc(C(C)(O)c2ccccc2)n1Cc1ccccc1 (configuration not stated) = > 100 µM

Please fill in: TGI reported for COc1ccc2c(c1)NC(=O)CN2c1nc(C)nc2ccccc12 = > 100 µM

Please fill in: TGI reported for CCOC(=O)c1c[nH]c2cc3c(cc2c1=O)CCS3 = > 100 µM

Please fill in: TGI reported for COc1ccc2c(c1)O/C(=C\c1ccc([N+](=O)[O-])s1)C2=O = > 100 µM

Please fill in: TGI reported for Cc1cccc2c(=O)c3c(O)cc4c(c3n(C)c12)C=CC(C)(C)O4 = > 100 µM

Please fill in: TGI reported for Cc1ccc2nnc(NS(=O)(=O)c3cc(C)c(Cl)cc3S)n2n1 = > 100 µM

Please fill in: TGI reported for O=c1[nH]c(Br)nc2c(N3CCCCC3)c[nH]c12 = > 100 µM

Please fill in: TGI reported for CN1CCN(Cc2ccc(NC(=O)c3cncc(C#Cc4ncc5ccccn45)c3)cc2C(F)(F)F)CC1 = 3.6 µM

Please fill in: TGI reported for C=C1C(OCCO)OC2O[C@]3(C)CCC4[C@H](C)CCC1C24OO3 (some centres not stated) = > 100 µM

Please fill in: TGI reported for COc1cc[nH]c1/C=C1\C(=O)Nc2ccc([N+](=O)[O-])c(N3CC[C@@H](O)C3)c21 = 1.97 µM

====

Task for the reader: assign each of the following compounds its reported TGI.
# Test system: HS 578T breast
# MEASUREMENT_PROTOCOL: NCI tumour cell line growth inhibition, 48 h

Please fill in: TGI reported for CC(C)C(=O)CP(=O)(O)O = > 100 µM

Please fill in: TGI reported for CC1(C)N=C(N)N=C(N)N1CCCCc1ccccc1 = > 81.9 µM

Please fill in: TGI reported for NC(=O)N=Nc1c2ccccc2n2[nH]ccc12 = > 100 µM

Please fill in: TGI reported for Cc1cc(C)nc(NS(=O)(=O)c2ccc(NC(=O)c3ccc4nc5ccccc5c(Nc5ccc(S(=O)(=O)Nc6nc(C)cc(C)n6)cc5)c4c3)cc2)n1 = > 100 µM

Please fill in: TGI reported for CC1OC(n2cnc3c(N)nc(Cl)nc32)C(C)(O)C1O (stereo not drawn) = > 25 µM

Please fill in: TGI reported for O=C1C=C(OCC=C(Cl)Cl)C(=O)c2ccccc21 = 8.47 µM

Please fill in: TGI reported for COc1ccc(-c2cc(=O)c3cccnc3[nH]2)cc1 = > 100 µM

Please fill in: TGI reported for CC(=O)NC1=CC(=O)C=C(Cl)C1=O = > 100 µM

Please fill in: TGI reported for NC(N)=N/N=C/c1ccc(Br)cc1 = 10.2 µM

Please fill in: TGI reported for NCCNc1ncnc2ccc(Cl)cc12 = > 100 µM

Please fill in: TGI reported for Cc1c(C=C(C#N)C#N)c(=O)n(C)c(=O)n1C = > 100 µM

Please fill in: TGI reported for Nc1nc(Cl)c2ncn(Cc3ccc(-c4ccc(CCl)cc4)cc3)c2n1 = > 100 µM

Please fill in: TGI reported for O=Cc1ccc2[nH]c(=O)oc2c1 = > 100 µM

Please fill in: TGI reported for O[C@H]1[C@@H]2OC[C@@H](O)[C@H](OCc3ccccc3)[C@@](COCc3ccccc3)(O2)[C@@H]1OCc1ccccc1 = 40.7 µM

Please fill in: TGI reported for CCN(CC)c1ccc2cc(-c3csc(-c4ccc(N(C)C)cc4)n3)c(=O)oc2c1 = > 100 µM

Please fill in: TGI reported for O=c1c2cc([N+](=O)[O-])cnc2sn1-c1ccc(Br)cc1 = > 100 µM

Please fill in: TGI reported for CCCC(=O)Oc1cc(OC(=O)CCC)c2c(C)cc(=O)oc2c1 = > 100 µM

Please fill in: TGI reported for S=c1sscc1N1CCSc2ssc(=S)c21 = > 100 µM

Please fill in: TGI reported for CCCCCCCCC(=O)NCCN(CCN)C(=O)CCCCCCCC = 24 µM

Please fill in: TGI reported for Cc1ccc(C)c(C(=N)c2ccccc2Cc2ccccc2)c1 = 20.7 µM

Please fill in: TGI reported for Cc1ccc(C(=O)N/N=C(\N=Nc2ccccc2)c2ccc(N(CCC#N)CCC#N)cc2C)cc1 = > 100 µM

Please fill in: TGI reported for CSc1nc(Cl)c2c(n1)Sc1nc3ccccc3n1N=C2 = 62.1 µM

Please fill in: TGI reported for O=C(N1CCN(c2ccccc2)CC1)N(C(=O)C1(c2ccc(Cl)cc2)CCCC1)S(=O)(=O)c1ccccc1 = 88.2 µM

====

# System: OVCAR-8 ovarian
# MEASUREMENT_PROTOCOL: NCI tumour cell line growth inhibition, 48 h
QUANTITY_KIND: GI50

Please fill in: GI50 reported for NC(N)=NC(N)=NCc1ccco1 = 896 µM

Please fill in: GI50 reported for CN(C)c1ccc(/C=c2\sc3nnc(Cc4ccccc4)n3c2=O)cc1 = > 100 µM

Please fill in: GI50 reported for COc1ccc(-c2cc3c(N)ncnc3o2)cc1 = > 25 µM

Please fill in: GI50 reported for COc1cc(OC)c2c(c1Cl)O[C@]1(C2=O)C(OCc2ccccc2)=CC(=O)C[C@H]1C = 1.02 µM

Please fill in: GI50 reported for CCCC(CCC)C(=O)O = > 100 µM

Please fill in: GI50 reported for C=C1C(OCCO)OC2O[C@]3(C)CCC4[C@H](C)CCC1C24OO3 (stereo partly specified) = 2.16 µM

====

Task for the reader: assign each of the following compounds its reported TGI.
# Test system: NCI-H226 lung
# MEASUREMENT_PROTOCOL: NCI tumour cell line growth inhibition, 48 h
Give a bare numeral; the unit µM is implied.

Please fill in: TGI reported for Cn1c(=O)c2[nH]cnc2n(C)c1=O.[CH2-]C(Cc1cccc2cc(C(=O)O)c(=O)oc12)OC.[Hg+2].[OH-] (stereo not given) = 40.7

Please fill in: TGI reported for CN1CCN(Cc2ccc(NC(=O)c3cncc(C#Cc4ncc5ccccn45)c3)cc2C(F)(F)F)CC1 = 3.91

Please fill in: TGI reported for CCC(=O)Oc1ccc(/C=N/NC(N)=S)nc1 = 43.4

Please fill in: TGI reported for CC1CC(c2ccc([N+](=O)[O-])cc2)=Nc2ccccc2S1=O (stereo not given) = 80.4

====

# Tested on: OVCAR-4 ovarian
# MEASUREMENT_PROTOCOL: NCI tumour cell line growth inhibition, 48 h
QUANTITY_KIND: TGI (µM)
Give a bare numeral; the unit µM is implied.

Please fill in: TGI reported for NC(N)=N/N=C/c1ccc(Br)cc1 = 31.6

Please fill in: TGI reported for CN1C(=O)C(C)(C)Oc2c(-c3cn(C)c(=O)c4[nH]ccc34)cc(S(C)(=O)=O)cc21 = 33.6

Please fill in: TGI reported for CCc1cccc(CC)c1NC(=O)C1=CNC(C)=C(C(=O)Nc2c(CC)cccc2CC)C1c1ccc(O)c(OC)c1 (stereo not given) = 91.4

====

# Test system: A549 NSCLC
# MEASUREMENT_PROTOCOL: NCI tumour cell line growth inhibition, 48 h
Where a SMILES comes first, the peptide text is derived from it. The star is where a group is joined. Fmoc = O=C(OCC1c2ccccc2-c2ccccc21)*; Boc = CC(C)(C)OC(=O)*
Task for the reader: assign each of the following compounds its reported TGI.

Please fill in: TGI reported for CC(C)Cn1cnc2c(SCc3ccccn3)nc(N)nc21 = > 100 µM

Please fill in: TGI reported for CC(C)(C)OC(=O)NCCCCC(NC(=O)C(Cc1c[nH]c2ccccc12)NC(=O)OCC1c2ccccc2-c2ccccc21)C(=O)O (stereo not given) (Fmoc-Trp-Lys(Boc)-OH; configuration not given here) = > 100 µM

Please fill in: TGI reported for Cn1c(=O)c2[nH]cnc2n(C)c1=O.[CH2-]C(Cc1cccc2cc(C(=O)O)c(=O)oc12)OC.[Hg+2].[OH-] (stereo not given) = 37.4 µM

Please fill in: TGI reported for Nc1cc(N)c2nc(-c3ccccc3)c(Oc3ccc(Cl)c(Cl)c3)nc2c1 = 43.5 µM

Please fill in: TGI reported for NNC(=O)CSc1nnc(CCCCCCCCc2nnc(SCC(=O)NN)o2)o1 = > 100 µM

Please fill in: TGI reported for CCc1ncc(C(C)(O)c2ccccc2)n1Cc1ccccc1 (stereo not given) = > 100 µM

Please fill in: TGI reported for C1COCCOP2(N3CC3)=NP(N3CC3)(=NP(N3CC3)(N3CC3)=N2)OCCOCCO1 (stereo not given) = > 100 µM

Please fill in: TGI reported for N=c1oc2ccc(Cl)cc2cc1C(=O)NC1CCCCC1 = > 100 µM

Please fill in: TGI reported for CCC(=O)Oc1ccc(/C=N/NC(N)=S)nc1 = > 100 µM

Please fill in: TGI reported for N#CC(CC(=O)O)=C(c1ccccc1)c1ccccc1 = > 100 µM
